Values were extracted from BindingDB's records for doi:10.7270/Q2B856KG.

Biological target: Voltage-dependent T-type calcium channel subunit alpha-1H (Homo sapiens)
Sequence (O95180 whole entry): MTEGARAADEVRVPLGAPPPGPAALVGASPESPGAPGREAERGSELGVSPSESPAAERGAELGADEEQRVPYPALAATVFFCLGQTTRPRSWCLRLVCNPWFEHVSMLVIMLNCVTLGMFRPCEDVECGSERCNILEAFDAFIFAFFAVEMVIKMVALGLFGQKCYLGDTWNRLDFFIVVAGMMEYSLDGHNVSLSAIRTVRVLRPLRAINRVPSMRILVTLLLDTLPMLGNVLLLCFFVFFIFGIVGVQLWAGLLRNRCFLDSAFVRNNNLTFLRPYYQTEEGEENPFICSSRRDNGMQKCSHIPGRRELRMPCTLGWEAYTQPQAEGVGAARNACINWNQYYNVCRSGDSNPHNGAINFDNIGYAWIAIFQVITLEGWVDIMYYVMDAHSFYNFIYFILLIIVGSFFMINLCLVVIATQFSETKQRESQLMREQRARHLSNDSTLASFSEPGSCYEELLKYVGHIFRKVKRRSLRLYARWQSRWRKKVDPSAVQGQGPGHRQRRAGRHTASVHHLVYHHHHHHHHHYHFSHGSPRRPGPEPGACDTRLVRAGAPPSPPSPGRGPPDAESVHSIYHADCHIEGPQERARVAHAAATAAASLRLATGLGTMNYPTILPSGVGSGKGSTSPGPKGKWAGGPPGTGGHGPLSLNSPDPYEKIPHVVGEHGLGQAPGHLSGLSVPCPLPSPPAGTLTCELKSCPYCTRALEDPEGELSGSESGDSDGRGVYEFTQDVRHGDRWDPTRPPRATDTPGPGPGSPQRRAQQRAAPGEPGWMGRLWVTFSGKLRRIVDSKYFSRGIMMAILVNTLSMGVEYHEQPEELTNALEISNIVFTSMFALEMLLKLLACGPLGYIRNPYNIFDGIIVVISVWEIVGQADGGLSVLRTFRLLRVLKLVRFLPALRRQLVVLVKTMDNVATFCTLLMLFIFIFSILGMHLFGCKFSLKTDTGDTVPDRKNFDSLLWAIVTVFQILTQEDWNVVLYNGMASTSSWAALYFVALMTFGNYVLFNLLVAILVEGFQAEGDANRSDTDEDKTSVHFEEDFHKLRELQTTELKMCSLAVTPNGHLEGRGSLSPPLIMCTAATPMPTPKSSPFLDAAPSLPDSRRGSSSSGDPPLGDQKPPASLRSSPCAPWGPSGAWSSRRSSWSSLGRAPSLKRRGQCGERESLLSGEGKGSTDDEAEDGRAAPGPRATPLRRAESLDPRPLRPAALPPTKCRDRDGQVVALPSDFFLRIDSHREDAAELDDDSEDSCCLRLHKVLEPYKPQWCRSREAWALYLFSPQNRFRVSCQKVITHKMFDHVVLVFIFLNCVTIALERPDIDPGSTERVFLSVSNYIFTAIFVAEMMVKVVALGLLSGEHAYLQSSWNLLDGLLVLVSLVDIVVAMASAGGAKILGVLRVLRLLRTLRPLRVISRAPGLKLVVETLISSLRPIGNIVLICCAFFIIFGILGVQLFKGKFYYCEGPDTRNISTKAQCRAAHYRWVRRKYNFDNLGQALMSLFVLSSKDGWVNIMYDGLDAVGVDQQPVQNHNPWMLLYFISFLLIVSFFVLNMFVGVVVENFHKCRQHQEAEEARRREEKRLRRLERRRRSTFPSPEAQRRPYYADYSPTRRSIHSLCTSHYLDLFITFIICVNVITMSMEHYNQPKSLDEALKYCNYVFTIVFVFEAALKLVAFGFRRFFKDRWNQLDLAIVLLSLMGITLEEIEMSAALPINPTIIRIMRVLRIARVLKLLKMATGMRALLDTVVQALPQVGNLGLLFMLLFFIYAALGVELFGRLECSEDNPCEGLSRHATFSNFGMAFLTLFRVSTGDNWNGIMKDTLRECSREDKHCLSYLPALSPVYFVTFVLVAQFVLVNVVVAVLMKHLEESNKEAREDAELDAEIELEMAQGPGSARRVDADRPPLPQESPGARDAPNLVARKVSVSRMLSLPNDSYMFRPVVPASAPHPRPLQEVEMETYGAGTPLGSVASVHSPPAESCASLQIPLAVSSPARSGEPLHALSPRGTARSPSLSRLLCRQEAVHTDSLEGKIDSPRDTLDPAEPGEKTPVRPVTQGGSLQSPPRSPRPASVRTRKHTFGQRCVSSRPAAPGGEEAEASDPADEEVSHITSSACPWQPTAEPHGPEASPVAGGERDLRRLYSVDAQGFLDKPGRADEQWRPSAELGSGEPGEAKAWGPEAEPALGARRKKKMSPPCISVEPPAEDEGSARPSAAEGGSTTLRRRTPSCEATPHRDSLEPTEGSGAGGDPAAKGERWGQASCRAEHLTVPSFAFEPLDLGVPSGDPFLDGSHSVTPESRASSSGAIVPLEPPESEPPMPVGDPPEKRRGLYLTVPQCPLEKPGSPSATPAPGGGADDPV
Assay: PubChem AID 489005
pEC50: −log10 of the molar value.
Hi, to clarify the labels: satisfied covers pEC50 from 5 upward, not satisfied covers anything below 5.

| molecule | qualitative-label |
| --- | --- |
| O=NC(c1ccc(Cl)cc1Cl)c1ncc(C(F)(F)F)cc1Cl (stereo unspecified) [MLS000540015] | satisfied |
| CCCCCCC1=Cc2c/c(=C3/NN=C(c4ccccc4)O3)c(=O)oc2=CC1=O [MLS000068623] | satisfied |
| CCN(CC)S(=O)(=O)c1ccc2c(c1)C(N=O)c1cc(S(=O)(=O)N(CC)CC)ccc1-2 | satisfied |

Proceed to the following item.
Problem: Determine whether this molecule has pEC50 no lower than 5: CC1CCN(S(=O)(=O)c2ccc(N=NC(C#N)C#N)cc2)CC1 [SMR000162322]
Result: satisfied

* * *

Target: Voltage-dependent T-type calcium channel subunit alpha-1H (Homo sapiens)
Assay: PubChem AID 489005
pEC50: −log10 of the molar value.
// false (0) strictly below 5 in pEC50; true (1) otherwise

These recorded examples may help you get a feel for the data.
| compound | study-system | qualitative-label |
| --- | --- | --- |
| Cc1ccc(-c2csc(NC(=O)c3cccc(-n4c(O)ccc4O)c3)n2)o1 | Voltage-dependent T-type calcium channel subunit alpha-1H (Homo sapiens) | true (1) |
| CC(CC(=O)c1ccncc1)=Nc1ccccc1O | Voltage-dependent T-type calcium channel subunit alpha-1H (Homo sapiens) | true (1) |
| Oc1cc(SCCc2nc3ccccc3[nH]2)c(O)n1-c1ccc(Cl)cc1 | Voltage-dependent T-type calcium channel subunit alpha-1H (Homo sapiens) | false (0) |
| CC(C)CC(C(=O)C(C#N)c1nc2ccccc2[nH]1)N1C(=O)c2ccccc2C1=O (configuration not stated) | Voltage-dependent T-type calcium channel subunit alpha-1H (Homo sapiens) | false (0) |

Problem: Tell me whether pEC50 is at least 5 here: COc1cccc(N2CCN(c3cc(O)n(-c4ccc(Cl)c(Cl)c4)c3O)CC2)c1
Result: true (1)
